What follows is literature data on pIC50 for Serine/threonine-protein kinase PLK1 (Homo sapiens, UniProt P53350).
pIC50: −log10 of the molar value.

For this compound ( NC(=O)c1sc(-n2cnc3ccc(OCCN4CCCCC4)cc32)nc1-c1cccc(Cl)c1 ), measured pIC50 is 6.58

Lookup result for CN1C(=O)[C@]2(C)CCCN2c2nc(-n3ccnc3-c3ccccc3)ncc21 ; measured pIC50: 4.30 to 5.00

pIC50 in this record for CC[C@]12COCCN1c1nc(-n3ccnc3-c3ccc(F)cn3)ncc1N(C)C2=O : < 4.30

Entry CN1C(=O)/C(=C/c2ccc3cn[nH]c3c2)c2ccccc21 ; pIC50 = 4.30 to 5.30

Measured pIC50 of CCN(CC1CCN(C)C1)C(=O)c1ccc(-c2c(F)cnc3[nH]c4cnc(-c5cccnc5)cc4c23)cc1 (stereo not drawn) : 6.00 to 7.00

So, Oc1ccc(-c2c(F)cnc3[nH]c4cnc(-c5cccnc5)cc4c23)cc1 ? Its pIC50 was 7.00 to 9.00

Record CC1CN(C2CCCC2)c2nc(Nc3ccc4oc(-c5cccnc5)nc4c3)ncc2N(C)C1=O (racemic) , field pIC50: < 5.30

Data point: O=C1Nc2c(cccc2C(F)(F)F)C1=Cc1ccc2cn[nH]c2c1 (mixture of isomers) ; pIC50 = < 4.30

The compound CN1CCC(NC(=O)c2ccc3ncn(-c4nc(-c5cccc(Cl)c5)c(C(N)=O)s4)c3c2)CC1 showed pIC50 equal to 5.69
